Target: Voltage-gated inwardly rectifying potassium channel KCNH2 (Homo sapiens)
Sequence (Q12809 whole entry): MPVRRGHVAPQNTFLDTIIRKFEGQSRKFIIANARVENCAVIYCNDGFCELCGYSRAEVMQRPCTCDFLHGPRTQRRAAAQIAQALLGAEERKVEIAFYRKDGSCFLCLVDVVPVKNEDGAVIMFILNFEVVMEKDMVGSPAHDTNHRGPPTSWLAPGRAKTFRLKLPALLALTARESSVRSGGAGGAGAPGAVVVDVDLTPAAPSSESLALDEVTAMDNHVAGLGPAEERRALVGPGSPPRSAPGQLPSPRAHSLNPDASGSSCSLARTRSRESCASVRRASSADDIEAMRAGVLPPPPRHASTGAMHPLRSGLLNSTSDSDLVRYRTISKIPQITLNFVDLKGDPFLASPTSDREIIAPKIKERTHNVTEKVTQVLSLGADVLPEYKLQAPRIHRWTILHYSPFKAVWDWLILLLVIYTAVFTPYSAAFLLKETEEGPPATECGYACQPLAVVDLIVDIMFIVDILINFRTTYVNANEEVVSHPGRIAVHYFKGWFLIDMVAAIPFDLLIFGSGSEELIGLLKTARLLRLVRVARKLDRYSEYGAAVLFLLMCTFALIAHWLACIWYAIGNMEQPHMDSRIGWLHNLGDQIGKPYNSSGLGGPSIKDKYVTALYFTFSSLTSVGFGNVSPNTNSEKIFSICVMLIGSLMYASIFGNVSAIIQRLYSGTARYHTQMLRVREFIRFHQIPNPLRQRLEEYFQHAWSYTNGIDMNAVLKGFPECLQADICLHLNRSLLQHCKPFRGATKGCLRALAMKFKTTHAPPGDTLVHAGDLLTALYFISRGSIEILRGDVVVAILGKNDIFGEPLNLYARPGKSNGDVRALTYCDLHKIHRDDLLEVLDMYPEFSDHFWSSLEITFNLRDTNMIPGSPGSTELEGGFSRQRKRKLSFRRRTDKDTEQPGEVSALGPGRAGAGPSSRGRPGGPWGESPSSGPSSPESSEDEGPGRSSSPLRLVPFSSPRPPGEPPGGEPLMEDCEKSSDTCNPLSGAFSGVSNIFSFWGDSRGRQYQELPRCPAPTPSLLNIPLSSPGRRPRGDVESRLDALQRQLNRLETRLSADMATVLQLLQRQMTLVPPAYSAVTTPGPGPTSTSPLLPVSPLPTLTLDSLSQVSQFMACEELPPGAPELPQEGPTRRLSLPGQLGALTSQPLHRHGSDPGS
Overview of recorded IC50 for various compounds

# example entries with known answers
CCC[C@@H](CCO)Nc1nc(N)nc2cnn(Cc3ncc(C4CCNCC4)cc3OC)c12; > 50 µM
CCCCNc1nc(N)nc2c(C)nn(Cc3ncc(C4CCNCC4)cc3OC)c12; > 50 µM

With those in mind, consider the next compound.
-- ask Please list IC50 recorded for the compound "CCC[C@@H](CCO)Nc1nc(N)nc2cnn(Cc3ncc(C4CCN(C(C)C)CC4)cc3OC)c12"
-- reply > 50 µM

----------
# key: entry, value: pIC50
Target: Cytochrome P450 3A4 (Homo sapiens, UniProt P08684)
Sequence (P08684 whole entry): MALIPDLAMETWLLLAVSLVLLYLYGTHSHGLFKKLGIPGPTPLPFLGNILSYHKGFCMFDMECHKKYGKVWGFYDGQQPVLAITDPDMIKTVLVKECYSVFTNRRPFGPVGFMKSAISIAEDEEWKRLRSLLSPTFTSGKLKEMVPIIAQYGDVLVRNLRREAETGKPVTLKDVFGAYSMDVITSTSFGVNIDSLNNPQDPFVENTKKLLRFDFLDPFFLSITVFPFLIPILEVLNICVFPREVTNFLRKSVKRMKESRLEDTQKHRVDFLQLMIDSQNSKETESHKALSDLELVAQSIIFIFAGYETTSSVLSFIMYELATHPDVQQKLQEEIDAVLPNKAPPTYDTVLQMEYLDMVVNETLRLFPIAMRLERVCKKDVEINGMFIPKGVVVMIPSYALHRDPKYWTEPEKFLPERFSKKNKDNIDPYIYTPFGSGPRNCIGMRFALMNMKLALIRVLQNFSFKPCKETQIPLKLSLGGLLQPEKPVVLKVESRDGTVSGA
Experiment: Inhibition of CYP3A4 (unknown origin) using BFC as substrate preincubated with compound followed by substrate addition at 30 mins
Assay type: ADME
pIC50: −log10 of the molar value.

The examples below pair each entry with its known result.
CCC[C@@H](CCO)Nc1nc(N)nc2cnn(Cc3ncc(C4CCN(C(C)C)CC4)cc3OC)c12; < 4.70
CCC[C@@H](CCO)Nc1nc(N)nc2cnn(Cc3ncc(C4CCN(CC#N)CC4)cc3OC)c12; < 4.70
CCC[C@@H](CCO)Nc1nc(N)nc2cnn(Cc3ncc(C4CCC5(CC4)CNC5)cc3OC)c12; < 4.85
CCC[C@@H](CCO)Nc1nc(N)nc2cnn(Cc3ncc(C4CCC5(CC4)CN(C(C)C)C5)cc3OC)c12; < 4.70
CCCCNc1nc(N)nc2c(C)nn(Cc3ncc(C4CCNCC4)cc3OC)c12; 6.00

Kindly review the next compound as well.
-- ask Supply recorded pIC50 for "CCC[C@@H](CCO)Nc1nc(N)nc2cnn(Cc3ncc(C4CCN(C)CC4)cc3OC)c12" here.
-- reply < 4.70
